test: Cell viability assay (CellTiter Glo) in a panel of cell lines; type: cell-based, human; settings: Homo sapiens, HCC4006, HCC4006; values derived from curves in Extended Fig 4b; read-out: EC50 mean
pEC50: −log10 of the molar value.

# compound, pEC50
measured = [
    ("Cc1ncsc1-c1ccc(C(CCC(C)CCN2CCC(c3ccc4c(c3)n(C3CCCC3)c3nc(=O)c5c(Br)cccc5n43)CC2)NC(=O)C2CC(O)CN2C(=O)C(NC(=O)C2(F)CC2)C(C)(C)C)cc1 (stereo not shown) [ACBI2]", 6.72),
]

====

Experiment: Cell viability assay (CellTiter Glo) in a panel of cell lines
Type: cell-based, human
Details: human, SK-MEL-5 cells, SK-MEL-5; log10 conc -6.50446 mol/l
Procedure: 500–2000 cells were seeded in white, clear bottom 96-well plates (Corning or Perkin Elmer) in 180–200 µl medium per well. The next day, compounds were added using a digital dispenser and a T0 sample was measured for reference. Cells were incubated for 144–192 h, and viability (luminescence) was measured using CellTiter Glo or CellTiter Glo 2.0 (Promega) according to manufacturer’s instructions after equilibrating cells and reagents at room temperature and 10–20 min incubation time while shaking.

# compound, viability at 0.313 µM
records = [
    ("Cc1ncsc1-c1ccc(C(CCC(C)CCN2CCC(c3ccc4c(c3)n(C3CCCC3)c3nc(=O)c5c(Br)cccc5n43)CC2)NC(=O)C2CC(O)CN2C(=O)C(NC(=O)C2(F)CC2)C(C)(C)C)cc1 (stereo not shown) [ACBI2]", "2.34%"),
]

====

Attribute: Mic. Stab. Human QH
assay: Microsomal stability; format: in vitro ADME; conditions: human liver microsomes

# compound, unitTag, Mic. Stab. Human QH
rows = [
    ("Nc1cccc2c1c(=O)nc1n(C3CCCC3)c3ccccc3n21 [compound 2]", "%", 91.040),
    ("Cc1ncsc1-c1ccc([C@H](CC[C@H](C)CCN2CCC(c3ccc4c(c3)n(C3CCCC3)c3nc(=O)c5c(Br)cccc5n43)CC2)NC(=O)[C@@H]2C[C@H](O)CN2C(=O)[C@@H](NC(=O)C2(F)CC2)C(C)(C)C)cc1 [compound 12]", "%", 31.400),
]

====

Test: Bidirectional permeability measurement in Caco-2 cells
Assay type: in vitro ADME
Conditions: human, Caco-2, pH 7.4, Caco-2, b to a; read-out: Caco-2 Pba
Description: Bidirectional permeability of test compounds across a Caco-2 cell monolayer was measured as described[43] with a modification of preincubation time[44]: Briefly, Caco-2 cells were seeded onto Transwell inserts (#3379, Corning, Wiesbaden, Germany) at a density of 160000 cells/cm^2 and cultured in DMEM (high glucose) containing 10% fetal bovine serum for 14–21 days. […] Test compound in the samples was quantified with LC-MS/MS. […]
measurementKind: Papp B→A at 1 µM (×10⁻⁶ cm/s)

# molecule, unitTag, measured
records = [
    ("Nc1cccc2c1c(=O)nc1n(C3CCCC3)c3ccccc3n21 [compound 2]", "×10⁻⁶ cm/s", 17),
    ("CN1CCC(c2ccc3c(c2)n(C2CCCC2)c2nc(=O)c4c(Br)cccc4n32)CC1 [compound 3]", "×10⁻⁶ cm/s", 21.7),
    ("Cc1ncsc1-c1ccc([C@H](COC(C)CN2CCC(c3ccc4c(c3)n(C3CCCC3)c3nc(=O)c5c(Br)cccc5n43)CC2)NC(=O)[C@@H]2C[C@@H](O)CN2C(=O)[C@@H](NC(=O)C2(F)CC2)C(C)(C)C)cc1 (some centres unmarked) [compound 9]", "×10⁻⁶ cm/s", 34),
    ("Cc1ncsc1-c1ccc([C@H](COC(C)CN2CCC(c3ccc4c(c3)n(C3CCCC3)c3nc(=O)c5c(Br)cccc5n43)CC2)NC(=O)[C@@H]2C[C@@H](O)CN2C(=O)[C@@H](NC(=O)C2(N(C)C)CC2)C(C)(C)C)cc1 (some centres unmarked) [compound 10]", "×10⁻⁶ cm/s", 26),
    ("Cc1ncsc1-c1ccc([C@H](COCCN2CCC(c3ccc4c(c3)n(C3CCCC3)c3nc(=O)c5c(Br)cccc5n43)CC2)NC(=O)[C@@H]2C[C@@H](O)CN2C(=O)[C@@H](NC(=O)C2(N(C)C)CC2)C(C)(C)C)cc1 [compound 26]", "×10⁻⁶ cm/s", 15.4),
]

Entry source: paper PMC9551036
